# Avg. POC values compiled below
Experimental Target: GSK3alpha (Homo sapiens (Human), UniProt P49840)
Sequence (P49840 whole entry): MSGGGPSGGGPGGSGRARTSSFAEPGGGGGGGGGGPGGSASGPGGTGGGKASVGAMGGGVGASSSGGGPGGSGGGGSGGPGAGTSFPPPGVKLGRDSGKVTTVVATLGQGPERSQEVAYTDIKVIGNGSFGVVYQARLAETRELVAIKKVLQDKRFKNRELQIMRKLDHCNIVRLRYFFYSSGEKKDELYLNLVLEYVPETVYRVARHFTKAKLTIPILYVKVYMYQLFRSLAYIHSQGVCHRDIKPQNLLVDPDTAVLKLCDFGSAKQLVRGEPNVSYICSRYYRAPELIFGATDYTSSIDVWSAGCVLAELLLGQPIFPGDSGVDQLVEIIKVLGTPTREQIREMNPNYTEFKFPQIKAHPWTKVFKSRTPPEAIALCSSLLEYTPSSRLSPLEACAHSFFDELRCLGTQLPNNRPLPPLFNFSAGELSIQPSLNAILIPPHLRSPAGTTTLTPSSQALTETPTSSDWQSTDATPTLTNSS
Method Description: KinaseProfiler off-target kinase profiling
Format: biochemical
Study Conditions: 10 μM, ATP near Km
Reply with just the number (in POC).

Worked examples follow.
Cc1c(-c2ccc(=O)n(C)c2)nn(-c2ccccc2)c1NC(=O)NC1CN(CC(F)(F)F)Cc2ccccc21 (stereo not shown) ... 115.5
Cc1c(-c2cnn(C)c2)nn(-c2ccccc2)c1NC(=O)N[C@H]1CCCc2ccccc21 ... 123.5
COCc1ccc2c(c1)C(NC(=O)Nc1c(C)c(-c3cnn(C)c3)nn1-c1ccccc1)COC2 (stereo not shown) ... 112.5

Consider now this further compound.
Qu. Given Cc1c(-c2cnn(C)c2)nn(-c2ccccc2)c1NC(=O)NC1CCOc2cc(F)ccc21 (stereo not shown) , state its recorded Avg. POC.
Ans. 119.5
